Experiment: Lipophilicity, n-octanol-PBS distribution coefficient (logD7.4)
Assay type: physicochemical
Conditions: n-octanol/PBS pH 7.4
Experimental: Approximately 1 MBq of the ^177Lu-labeled compound was dissolved in 1 mL of phosphate-buffered saline (pH 7.4) and n-octanol (v/v = 1/1). After stirring for 3 min at room temperature in a vortex mixer and subsequent centrifugation at 9,000 rpm for 5 min (Biofuge 15; Heraeus Sepatech GmbH), 200-μL aliquots of both layers were measured separately in a γ-counter. The experiment was repeated at least 5 times.
MEASURED_PARAMETER: logD

For reference, reported logD for CC(C)CC(CC(C)C)NC(=O)[C@H](Cc1cnc[nH]1)NC(=O)CNC(=O)[C@@H](NC(=O)[C@H](C)NC(=O)[C@H](Cc1c[nH]c2ccccc12)NC(=O)[C@H](CCC(N)=O)NC(=O)[C@@H](Cc1ccccc1)NC(=O)COCC(=O)Nc1ccc(CNC(=O)CN2CCN(CC(=O)O)CCN(CC(=O)O)CCN(CC(=O)O)CC2)cc1)C(C)C [^177Lu-NeoBOMB1, metal not drawn, reference compound] stands at -0.57

###

I'd appreciate it if you could supply Intact tracer in murine plasma in vivo values for the items below.
assay: In vivo metabolic stability in murine plasma and urine; set-up: species or system CB17-SCID mice; conditions: murine plasma, 30 min after injection, n = 3

Data point: CC(C)C[C@H](NC(=O)C[C@H](O)[C@H](CC(C)C)NC(=O)[C@H](Cc1c[nH]cn1)NC(=O)CNC(=O)[C@@H](NC(=O)[C@H](C)NC(=O)[C@H](Cc1c[nH]c2ccccc12)NC(=O)[C@H](CCC(N)=O)NC(=O)[C@@H](Cc1ccccc1)NC(=O)CN1CCC(NC(=O)CN2CCN(CC(=O)O)CCN(CC(=O)O)CCN(CC(=O)O)CC2)CC1)C(C)C)C(N)=O [^177Lu-RM2, metal not drawn, reference compound] ; Intact tracer in murine plasma in vivo = 11.4% ± 3.7%

GET /value?item= CC(C)C[C@H](NC(=O)C[C@H](O)[C@H](CC(C)C)NC(=O)[C@H](Cc1c[nH]cn1)NC(=O)CNC(=O)[C@@H](NC(=O)[C@H](C)NC(=O)[C@](C)(Cc1c[nH]c2ccccc12)NC(=O)[C@H](CCC(N)=O)NC(=O)[C@@H](Cc1ccccc1)NC(=O)CN1CCC(NC(=O)CCC(C(=O)O)N2CCN(CC(=O)O)CCN(CC(=O)O)CCN(CC(=O)O)CC2)CC1)C(C)C)C(N)=O (stereo partly drawn) [^177Lu-AMTG2, ^177Lu-DOTAGA-α-Me-L-Trp^8-RM2, metal not drawn] &field=Intact tracer in murine plasma in vivo returns 77.6% ± 3.1%

Notebook: CC(C)CC(CC(C)C)NC(=O)[C@H](Cc1cnc[nH]1)NC(=O)CNC(=O)[C@@H](NC(=O)[C@H](C)NC(=O)[C@H](Cc1c[nH]c2ccccc12)NC(=O)[C@H](CCC(N)=O)NC(=O)[C@@H](Cc1ccccc1)NC(=O)COCC(=O)Nc1ccc(CNC(=O)CN2CCN(CC(=O)O)CCN(CC(=O)O)CCN(CC(=O)O)CC2)cc1)C(C)C [^177Lu-NeoBOMB1, metal not drawn, reference compound] , Intact tracer in murine plasma in vivo read as 75.9% ± 0.6%

The recorded Intact tracer in murine plasma in vivo for entry CC(C)C[C@H](NC(=O)C[C@H](O)[C@H](CC(C)C)NC(=O)[C@H](Cc1c[nH]cn1)NC(=O)CNC(=O)[C@@H](NC(=O)[C@H](C)NC(=O)[C@](C)(Cc1c[nH]c2ccccc12)NC(=O)[C@H](CCC(N)=O)NC(=O)[C@@H](Cc1ccccc1)NC(=O)CN1CCC(NC(=O)CN2CCN(CC(=O)O)CCN(CC(=O)O)CCN(CC(=O)O)CC2)CC1)C(C)C)C(N)=O [^177Lu-AMTG, ^177Lu-α-Me-L-Trp^8-RM2, metal not drawn] equals 92.9% ± 0.7%
